target: T1, basiliximab fab; experiment: BLI; CD25-Fc on anti-hFc biosensor, basiliximab Fab in solution; global 1:1 fit;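 further: biolayer interferometry signals normalized against a reference probe and smoothed with a Savitzky-Golay filter before the global fit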
T1 construct: The assay used a Fab of basiliximab; Chimeric antibody: human IgG1 constant, mouse variable domains
T1 sequence (VH, as listed by the source limits assumed, chain 1 of 2): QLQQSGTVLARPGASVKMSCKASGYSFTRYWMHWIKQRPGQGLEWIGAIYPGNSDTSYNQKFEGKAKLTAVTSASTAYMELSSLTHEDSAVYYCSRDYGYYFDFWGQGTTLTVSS
T1 sequence (VL, as listed by the source limits assumed, chain 2 of 2): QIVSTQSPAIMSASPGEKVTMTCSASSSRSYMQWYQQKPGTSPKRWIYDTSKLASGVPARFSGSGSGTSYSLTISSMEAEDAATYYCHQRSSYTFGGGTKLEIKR
Items are presented alongside their recorded kon.
Form entry: value (M⁻¹ s⁻¹) — number only.

Problem: So what's the measured kon for this one? CD25 S41Q mutant (CD25-Fc) (Fc fusion, not shown: Fc part of CD25-Fc) ELCDDDPPEIPHATFKAMAYKEGTMLNCECKRGFRRIKSGQLYMLCTGNSSHSSWDNQCQCTSSATRNTTKQVTPQPEEQKERKTTEMQSPMQPVDQASLPGHCREPPPWENEATERIYHFVVGQMVYYQCVQGYRALHRGPAESVCKMTHGKTRWTQPQLICTGEMETSQFPGEEKPQASPEGRPESETSCLVTTTDFQIQTEMAATMETSIFTTEYQ
Result: 975000
